Biological target: Q92614
Test: holdup assay
Design: key: below the threshold = too weak to quantify, mostly under pKd 3.1 to 4
Settings: plain residues with an end cap or a label only (N-terminal biotin on a linker: ttds)
READOUT KIND: pKd

| BINDER | pKd |
| --- | --- |
| SSLQSLETSV [ATP2B4, P23634] | below the threshold |
| RPLPRKVSQL [DOCK4, Q8N1I0] | below the threshold |
| RLPKIKETTV [FRMPD4, Q14CM0] | below the threshold |
| RHTTSTETAV [HPV30-E6, P36809] | below the threshold |

Please give the measured pKd for this binder: QRQARSETLV [HPV59-E6, Q81964]
below the threshold
